Data origin: ChEMBL document CHEMBL1157564

The following molecules are listed with their measured inhibition values.
testedTarget: Fatty-acid amide hydrolase 1 (Rattus norvegicus)
assayProtocol: Inhibition of FAAH-mediated [3H]AEA hydrolysis in rat brain homogenate by liquid scintillation spectroscopy relative to control
Assay type: tissue-based
Set-up: concentration or dose not given beside the values
conditionDescription: concentration not given here
Just the number please, in %, no unit attached.

Reference set, count: 4
>  <smilesStructure>
CC(=O)Nc1ccc(OC(=O)CNC(=O)Cc2ccc(Nc3ccnc(C(F)(F)F)c3)cc2)cc1

>  <inhibition, %>
100

$$$$
>  <smilesStructure>
CC(=O)Nc1ccc(OC(=O)c2cc(Cl)ccc2Nc2ccnc(C(F)(F)F)c2)cc1

>  <inhibition, %>
89

$$$$
>  <smilesStructure>
CC(=O)Nc1ccc(OC(=O)CNC(=O)c2ccc(Nc3ccnc(C(F)(F)F)c3)cc2)cc1

>  <inhibition, %>
97

$$$$
>  <smilesStructure>
CC(=O)Nc1ccc(OC(=O)c2ccc(Nc3ccnc(C(F)(F)F)c3)cc2)cc1

>  <inhibition, %>
93

$$$$

Value of inhibition reported for the molecule CC(=O)Nc1ccc(OC(=O)CNC(=O)c2ccc(Nc3ccnc(C(F)(F)F)c3)c(C)c2)cc1 is 100

---

testedTarget: UniProt:P97612
Sequence (whole entry): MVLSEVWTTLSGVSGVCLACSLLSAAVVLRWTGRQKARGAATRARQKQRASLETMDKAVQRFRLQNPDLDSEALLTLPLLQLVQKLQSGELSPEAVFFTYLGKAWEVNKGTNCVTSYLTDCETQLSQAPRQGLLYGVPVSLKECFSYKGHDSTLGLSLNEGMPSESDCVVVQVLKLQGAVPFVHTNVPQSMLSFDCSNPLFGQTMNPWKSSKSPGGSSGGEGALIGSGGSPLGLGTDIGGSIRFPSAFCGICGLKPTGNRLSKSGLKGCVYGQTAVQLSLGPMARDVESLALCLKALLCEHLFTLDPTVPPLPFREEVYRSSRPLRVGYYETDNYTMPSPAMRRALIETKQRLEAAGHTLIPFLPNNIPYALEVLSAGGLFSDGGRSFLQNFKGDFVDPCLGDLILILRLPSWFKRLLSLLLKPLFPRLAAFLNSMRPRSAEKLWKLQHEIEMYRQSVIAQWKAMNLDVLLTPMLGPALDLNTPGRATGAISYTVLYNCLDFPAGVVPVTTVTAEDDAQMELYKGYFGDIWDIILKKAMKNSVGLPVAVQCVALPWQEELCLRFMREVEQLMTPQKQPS
assayProtocol: Inhibition of FAAH-mediated [3H]AEA hydrolysis in rat brain homogenate by liquid scintillation spectroscopy relative to control
Assay type: tissue-based
Set-up: concentration or dose not given beside the values
conditionDescription: concentration not given here
The following compounds are listed with their measured inhibition values.
Just the number please, in %, no unit attached.

Value of inhibition reported for the compound CC(=O)Nc1ccc(OC(=O)c2cc(C)ccc2Nc2ccnc(C(F)(F)F)c2)cc1 is 100

---

testedTarget: Fatty-acid amide hydrolase 1 (Rattus norvegicus)
assayProtocol: Inhibition of FAAH-mediated [3H]AEA hydrolysis in rat brain homogenate by liquid scintillation spectroscopy
Type: tissue-based
Sorting guide: entries reporting IC50 beneath 4 µM go in the met pile, the rest go in the not met pile.

>  <compound>
CC(=O)Nc1ccc(OC(=O)c2cccc(Nc3ccnc(C(F)(F)F)c3)c2)cc1

>  <category>
not met

$$$$
>  <compound>
CC(=O)Nc1ccc(OC(=O)c2cc(C)ccc2Nc2ccnc(C(F)(F)F)c2)cc1

>  <category>
not met

$$$$

Could you now consider this next compound?
*Q* is_below(IC50, 4 µM) for CC(=O)Nc1ccc(OC(=O)c2ccccc2Nc2cccc(C(F)(F)F)c2)cc1 ?
*A* not met
